All values here come from patent US20240239875A1.

molecular target: SARS-CoV-2 receptor binding domain (UniProt P0DTC2 319-541); test: ELISA
The entries below come with measured EC50 values attached.
Entry rule: numbers only, all in pM.

[[record]]
binder = "4-M3-A (antibody, V domains shown) VH: EVQLQQSGPELVKPGDSVKISCKASGYSFTGYFMNWVMQSHGKSLEWIGRINPNNGETFYNQKFKGKATLTVDKSSDTAHMELRSLTSEDSAVYYCARGGTGTGWGQGTTLTVSS VL: DILMTQSPSSMSVSLGDTVSITCHASQGISSNIGWLQQKPGKSFKGLIYYGTNLEDGVPSRFSGSGSGADYSLTISSLESEDLADYYCIQYAQFPYTFGGGTKLEIK"
unit_string = "pM"
endpoint_result = 260

[[record]]
binder = "8-H3-A (antibody, V domains shown) VH: EVQLVESGGGLVQPKGSLKLSCAASGFTFNTYAMHWVRQAPGKGLEWVARIRSKSSNYATYYADSVKDRFTISRDDSQSMLYLQMNNLKTEDTAMYYCVRDHDYYGSSYWFTYWGQGTLVTVSA VL: DVVMTQTPLSLPVSLGDQASISCRSSQSLVHDNGNTYLHWFLQKPGQSPKLLIYKVSNRFSGVPDRFSGSGSGTDFTLKISRVETEDLGVYFCSQSTHVPWTFGGGTKLEIK"
unit_string = "pM"
endpoint_result = 190

[[record]]
binder = "9-L13-A (antibody, V domains shown) VH: QVQLKESGPGLVAPSQSLSITCTVSGFSLTSYAISWVRQPPGKGLEWLGLIWTGGGTNYNSALKSRLSISKDNSKSQIFLKMNSLQTDDTARYYCARGPPLIYYGDLYYFDYWGQGTTLTVSS VL: DIQMTQSPSSLSASLGGKVTITCKASQDINKYIAWYQHKPGKGPRLLIHYTSTLQPGIPSRFSGSGSGRDYSFSISNLEPEDIATYYCLQYDNLWTFGGGTKLEIK"
unit_string = "pM"
endpoint_result = 26900


Let us examine a further case.
get_value(item= 8-L17-A (antibody, V domains shown) VH: EVQLVESGGGLVQPKGSLKLSCAASGFTFNTYAMHWVRQAPGKGLEWVARIRSKSSNYARYYADSVKDRFTISRDDSQSMLYLQMNNLKTEDTAMYYCVRDHDYYGSSYWFAYWGQGTLVTVSA VL: DVVMTQTPLSLPVSLGDQASISCRSSQSLVHNNGNTYLHWYLQKPGQSPKLLIYKVSNRFSGVPDRFSGSGSGTDFTLKISRVEAEDLGVYFCSQSTHVPWTFGGGTKLEIK , readout=EC50) returns 270
